# experiment: Specific activity of purified CHI, absorbance decrease at 384 nm, naringenin chalcone; note: unit not given here
# Format: biochemical
# recordedConditions: purified CHI in 50 mM PBS, 100 μM substrate, 25° C.
Assign fulfilled to entries whose Specific activity, Naringenin chalcone meets or exceeds 30; assign not fulfilled to the rest.

Observe how each entry below is paired with its result.
molecule	groupLabel
CHI2: Chalcone isomerase from Tepidanaerobacter acetatoxydans, access no. WP_013779275.1 (protein, Tepidanaerobacter acetatoxydans) DTEFKPMRSLIYVGVAKEEYRHKLKNWLYRYHIPDSISQFAPYVTKYAFYNALPVPPEGERFGAYNMQLTEHYWLINPMNPQLKIKAFTEFFPVDVLKWQGNIPDDADADSVNIEGDAARSSGGDNGMPPFIFAFIPFWWEEDFKGAGRTVEDGPNYRWQFLIQYPNGISLEEGDQWFYKKLVPAFKEMPEVNRFLTSRVIRDVNDCQFHRVIEMWFDGPEEWYRAAVEKGKSIERPHWATAEEFPYLKPKFQIASLFLTDIADSDNYSQYRGYITMR	fulfilled
CHIera Mut10: Chalcone isomerase variant 10 from Eubacterium ramulus, genetically engineered (protein, listed as Eubacterium ramulus) MADFKFEPMRSLIYVDCVSEDYRPKLQRWIYKVHIPDSISQFEPYVTKYAFYPSFPIPPQGDRFGYARMQLTEHHWLVSILDPRLEIKAIAETFPMDVLVWQGQIPAAAHTDAQIDSDGDAGDAARKSNNAEGNPFIFAFLPMWWEKDLKGKGRTIEDGANYRFNMTIGFPEGVDKAEGEKWLFEKVVPILQAAPECTRVLASAVKKDINGCVMDWVLEIWFENQSGWYKVMVDDMKALEKPSWAQQDAFPFLKPYHNVCSAAVADYTPSNNLANYRGYITMR	not fulfilled

Query block: Does the reported Specific activity, Naringenin chalcone for CHI13: Chalcone isomerase from Lactobacillus sp. 54-2, access no. WP_125715151.1 (protein, Lactobacillus sp. 54-2) SFEFRPMRSVIYVDVIKEKYRPKLLHWLYGHHIQDSISKFGPYVTKYAFYNAFPVPPEGERFGTRRMQMTEHYWLINEMTPEMKNNAITEYMPKDVLRWQGNIPDTDAAAAGNVDGDTGRSAGGANGCQPFVFAHVPINWEEDYKGDGRMVADGPNYRWQFVIKYPENLTEAAGEAWFHDEVVPYFKGRPEVHRFMSSRIMQDVVGCEFERLVEMWFDSEDEWYTAAVAGTTALKKPSWAQQNQFPFLTPQFNIVGMFLPDIPTSDNLAQYRGYITMR fall at or above the 30 mark?
Result block: fulfilled

Query block: Does the reported Specific activity, Naringenin chalcone for CHIera: Chalcone isomerase from Eubacterium ramulus (protein, listed as Eubacterium ramulus) ADFKFEPMRSLIYVDCVSEDYRPKLQRWIYKVHIPDSISQFEPYVTKYAFYPSFPIPPQGDRFGYARMQLTEHHWLVSDLDPRLEIKAIAETFPMDVLVWQGQIPAAAHTDAQIDSDGDAGNAARKSNNAEGNPFIFAFLPMWWEKDLKGKGRTIEDGANYRFNMTIGFPEGVDKAEGEKWLFEKVVPILQAAPECTRVLASAVKKDINGCVMDWVLEIWFENQSGWYKVMVDDMKALEKPSWAQQDAFPFLKPYHNVCSAAVADYTPSNNLANYRGYITMR fall at or above the 30 mark?
Result block: fulfilled

Query block: Does the reported Specific activity, Naringenin chalcone for CHI6: Chalcone isomerase from Lachnoclostridium sp., access no. HCD45524.1 (protein, listed as Lachnoclostridium sp.) GTEFDPMRSFIYVDVIKEEYRHKLQHWLYFHHIPESISQFEPYCTKYAFYNALPVPEGGERFGTARMQITEHSWLVNIMDPALKVKAFQEYMPIEALKWQGTVPETAGDVLMSGDDARCTGGNNGCMPFVFAFCPMWWEEDVKGAGRTLTEGANYRWNFALTYPEGISKEEGDKWLFEEVFPYFEANNCCTRILTSKVRQEINGCPMYRVVEMWFTGPTAWHHLAVETADKIKSPSWAKDGDVFPYLKSGFEIRGAFVTDYPTCDAYSQYRGYIPRR fall at or above the 30 mark?
Result block: not fulfilled

Query block: Does the reported Specific activity, Naringenin chalcone for CHI3: Chalcone isomerase from Clostridium sp. JN500901, access no. WP_119972745.1 (protein, Clostridium sp. JN500901) SIEFKPMRSLIYVDVVKEDYRHMLKHWLYYHHIPDSISQFGPYVTKYAFYPALPTPPDGERFGTHRMQLTEHYWLVNPLTPEFKNKTMTEYFPVDVLKWQGNVPDDNEVAILEGKETEKVESGDAARSTGGDNGMPPFIWAFVPISWEEDLKGEGRSMEDGPNYRWQFVMKYPDGVPMEEGDKWFYKEVIPKFQDSPDVTRILTSKIIQNINDCPYQRIVEMWFNCPSGWHRAAVEKAREIKKPSWAKYDEFPYLKPKFEISSLFLTDIAESDNYTQYRGFIPMR fall at or above the 30 mark?
Result block: not fulfilled

Query block: Does the reported Specific activity, Naringenin chalcone for CHIera Mut6: Chalcone isomerase variant 6 from Eubacterium ramulus, genetically engineered (protein, listed as Eubacterium ramulus) MADFKFEPMRSLIYVDCVSEDYRPKLQRWIYKVHIPDSISNFEPYVTKYAFYPSFPIPPQGDRFGYARMQLTEHHWLVSELDPRLEIRAIAETFPMDVLVWQGQIPAAAHTDAQIDSDGDAGDAARKSNNAEGNPFIFAFLPMWWEKDLKGKGRTIEDGANYRFNMTIGFPEGVDKAEGEKWLFEKVVPILQAAPECTRVLASAVKKDINGCVMDWVLEIWFENQSGWYKVMVDDMKALEKPSWAQQDAFPFLKPYHNVCSAAVADYTPSNNLANYRGYITMR fall at or above the 30 mark?
Result block: not fulfilled
